- Tested Target: Aurora Kinase A (Homo sapiens, UniProt O14965)
- Construct: full length Aurora A (1-403 amino acids); purchased Carna Biosciences 05-101
- Sequence (O14965 whole entry, the tested form may be a part): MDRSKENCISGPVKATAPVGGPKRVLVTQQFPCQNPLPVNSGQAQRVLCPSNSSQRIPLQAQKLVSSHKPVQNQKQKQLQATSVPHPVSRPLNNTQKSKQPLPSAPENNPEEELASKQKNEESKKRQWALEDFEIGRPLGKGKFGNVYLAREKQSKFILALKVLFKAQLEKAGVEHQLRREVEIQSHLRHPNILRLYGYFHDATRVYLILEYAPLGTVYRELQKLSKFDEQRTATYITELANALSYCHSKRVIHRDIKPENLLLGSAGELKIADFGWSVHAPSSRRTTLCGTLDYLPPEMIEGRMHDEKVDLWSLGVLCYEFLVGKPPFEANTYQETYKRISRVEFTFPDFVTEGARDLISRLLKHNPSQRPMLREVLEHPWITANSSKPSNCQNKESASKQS
- Experimental Details: Biochemical enzyme assay for Aurora A activity (Caliper LC3000 / Desktop Profiler mobility shift)
- Condition Context: GST-Aurora A, 15 μM ATP, 90 min at 25° C.; LC3000 or Desktop Profiler; read-out: Aurora Kinase A IC50
pIC50: −log10 of the molar value.
In this section we review reported pIC50 values for a set of compounds.
Result Type: pIC50

1. O=C(Nc1ccc(Nc2ncnc3[nH]c(=O)c(C(=O)O)cc23)cc1)c1ccccc1 | < 6.00
2. O=C(Nc1ccc(Nc2ccnc3[nH]c(=O)c(C(=O)O)c(-c4ccccc4)c23)cc1)c1ccc(F)c(F)c1 | 6.52 to 9.00
3. Nc1ccc(NC(=O)c2ccc(OC(F)(F)F)cc2)cc1 | 6.52 to 9.00
4. O=C(Nc1ccccc1Nc1ccnc2[nH]c(=O)ccc12)c1ccccc1 | 6.52 to 9.00
5. Cc1ccccc1C(=O)Nc1ccc(N)cc1 [Compound 22, N-(4-Aminophenyl)-2-methyl-benzamide] | 6.00 to 6.22
6. O=C(Nc1ccc(Nc2ccnc3[nH]c(=O)c(F)cc23)cc1)c1ccc(F)cc1C(F)(F)F | 6.52 to 9.00
7. O=C(Nc1ccc(Nc2ccnc3[nH]c(=O)ccc23)cc1)c1cccc(F)c1 | 6.52 to 9.00
8. Nc1ccc(NC(=O)c2c(Cl)cccc2Cl)cc1 [Compound 25, N-(4-Aminophenyl)-2,6-dichloro-benzamide] | 6.52 to 9.00

----------
Each record here notes measured pIC50.
- Tested Target: Aurora Kinase A (Homo sapiens, UniProt O14965)
- Construct: full length Aurora A (1-403 amino acids); purchased Carna Biosciences 05-101
- Experimental Details: Biochemical enzyme assay for Aurora A activity (Caliper LC3000 / Desktop Profiler mobility shift)
- Condition Context: GST-Aurora A, 15 μM ATP, 90 min at 25° C.; LC3000 or Desktop Profiler; read-out: Aurora Kinase A IC50
pIC50: −log10 of the molar value.
Result Type: pIC50

1) O=C(Nc1ccc(Nc2ccnc3[nH]c(=O)ccc23)cc1)c1cccc(C(F)(F)F)c1F | < 6.00
2) Cc1cccc(C(=O)Nc2ccc(N)cc2)c1 [Compound 23, N-(4-Aminophenyl)-3-methyl-benzamide] | < 6.00
3) O=C(Nc1ccc(Nc2ccnc3[nH]c(=O)ccc23)cc1)c1ccccc1F | 6.52 to 9.00
4) O=C(Nc1ccc(Nc2ccnc3[nH]c(=O)ccc23)cc1)c1ccc(OC(F)(F)F)cc1 | 6.00 to 6.22
5) CN(C)CCCOc1ccc2c(Nc3ccc(C(=O)Nc4ccccc4)cc3)ccnc2n1 | < 6.00
6) Nc1ccc(NC(=O)c2ccc(C(F)(F)F)cc2F)cc1 | 6.52 to 9.00
7) Nc1ccc(NC(=O)c2cccc(C(F)(F)F)c2F)cc1 | 6.52 to 9.00
8) Nc1ccc(NC(=O)c2ccc(Cl)cc2)cc1 [Compound 20, N-(4-Aminophenyl)-4-chloro-benzamide] | 6.52 to 9.00
9) O=C(Nc1ccc(Nc2ccnc3[nH]c(=O)ccc23)cc1)c1ccccc1 | 6.52 to 9.00
10) Nc1ccc(NC(=O)c2ccc3ccccc3c2)cc1 | 6.52 to 9.00
11) O=C(Nc1ccc(Nc2ccnc3[nH]c(=O)ccc23)cc1)c1ccc(F)c(F)c1 | 6.52 to 9.00
12) Nc1nccc(Cl)c1C(=O)c1ccccc1 | 6.52 to 9.00
13) O=C(Nc1ccc(Nc2ccnc3[nH]c(=O)ccc23)cc1)c1ccc(F)cc1 | 6.52 to 9.00
14) Nc1ccc(NC(=O)c2cc(F)cc(C(F)(F)F)c2)cc1 | 6.52 to 9.00
15) Nc1ccc(NC(=O)c2cccc3ccccc23)cc1 | < 6.00
16) Cc1cc(=O)[nH]c2nccc(Nc3ccc(NC(=O)c4ccccc4)cc3)c12 | 6.52 to 9.00
17) CN(C)CCNC(=O)c1cc2c(Nc3ccc(NC(=O)c4ccccc4)cc3)ncnc2[nH]c1=O | < 6.00
18) O=C(Nc1ccc(Oc2ccnc3[nH]c(=O)ccc23)cc1)c1ccccc1 | 6.52 to 9.00
19) O=C(Nc1ccc(Nc2ccnc3[nH]c(=O)ccc23)cc1)c1cc(F)cc(F)c1 | 6.52 to 9.00
20) O=c1ccc2c(Cl)ccnc2[nH]1 | 6.52 to 9.00
21) O=C(Nc1ccccc1)c1ccc(Nc2ccnc3[nH]c(=O)ccc23)cc1 | < 6.00
22) Nc1ccc(NC(=O)c2ccc(F)cc2F)cc1 [Compound 12, N-(4-Aminophenyl)-2,4-difluoro-benzamide] | 6.52 to 9.00
23) CN(C)C1CCN(c2ccc3c(Nc4ccc(C(=O)Nc5ccccc5)cc4)ccnc3n2)CC1 | 6.52 to 9.00
24) Nc1ccc(NC(=O)c2ccc(F)cc2C(F)(F)F)cc1 | 6.52 to 9.00
25) O=C(Nc1ccc(Nc2ccnc3[nH]c(=O)c([N+](=O)[O-])cc23)cc1)c1ccc(F)c(F)c1 | 6.52 to 9.00
26) COC(=O)c1cc2c(Nc3ccc(NC(=O)c4ccccc4)cc3)ncnc2[nH]c1=O | < 6.00
27) Nc1cc2c(Nc3ccc(NC(=O)c4ccc(F)cc4C(F)(F)F)cc3)ccnc2[nH]c1=O | 6.52 to 9.00
28) CC(C)(C)OC(=O)CC(O)c1c(Cl)ccnc1NC(=O)C(C)(C)C (stereo not shown) | 6.52 to 9.00
29) Cc1cc(=O)[nH]c2nccc(Nc3ccc(NC(=O)c4ccc(F)cc4C(F)(F)F)cc3)c12 | 6.52 to 9.00
30) O=C(Nc1ccc(Nc2ccnc3[nH]c(=O)ccc23)cc1)c1cc(C(F)(F)F)cc(C(F)(F)F)c1 | < 6.00
31) O=C(Nc1ccc(Nc2ccnc3nc(Cl)ccc23)cc1)c1ccccc1 | 6.52 to 9.00
32) Nc1ccc(NC(=O)c2ccc(Cl)cc2Cl)cc1 [Compound 27, N-(4-Aminophenyl)-2,4-dichloro-benzamide] | 6.52 to 9.00
33) O=c1ccc2c(Nc3c(Cl)ccc4c3OCO4)ccnc2[nH]1 [Compound 31a] | 6.52 to 9.00
34) CC(C)(C)OC(=O)c1c(-c2ccccc2)c2c(Cl)ccnc2[nH]c1=O | 6.52 to 9.00

----------
// values below are IC50; system is Aurora Kinase B (Homo sapiens, UniProt Q96GD4)
Sequence (Q96GD4 whole entry): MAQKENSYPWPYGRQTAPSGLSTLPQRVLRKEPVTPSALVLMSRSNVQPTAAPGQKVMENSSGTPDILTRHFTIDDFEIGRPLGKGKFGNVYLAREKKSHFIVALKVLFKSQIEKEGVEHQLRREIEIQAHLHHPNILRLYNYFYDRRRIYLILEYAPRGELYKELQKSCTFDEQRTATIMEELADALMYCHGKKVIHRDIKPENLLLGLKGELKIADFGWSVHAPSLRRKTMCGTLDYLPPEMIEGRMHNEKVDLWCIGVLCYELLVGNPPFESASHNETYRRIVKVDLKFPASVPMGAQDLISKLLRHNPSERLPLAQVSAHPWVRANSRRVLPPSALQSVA
Result Type: IC50

1. O=C(Nc1ccc(Nc2ccnc3[nH]c(=O)ccc23)cc1)c1ccc(C(F)(F)F)cc1 [Compound 38] | > 1000 nM
2. Nc1cc2c(Nc3ccc(NC(=O)c4ccc(F)c(F)c4)cc3)ccnc2[nH]c1=O [Compound 89] | 1 to 300 nM
3. O=C(Nc1ccc(Nc2ccnc3[nH]c(=O)ccc23)cc1)c1ccccc1C(F)(F)F [Compound 37] | 601 to 1000 nM
4. O=C(Nc1ccc(Nc2ccnc3[nH]c(=O)cc(O)c23)cc1)c1ccccc1 [Compound 92] | 1 to 300 nM
5. O=C(Nc1ccc(Nc2ccnc3[nH]c(=O)ccc23)cc1)c1cccc(C(F)(F)F)c1F [Compound 39] | > 1000 nM
6. Nc1ccc(NC(=O)c2c(F)cccc2F)cc1 [Compound 9, N-(4-Aminophenyl)-2,6-difluoro-benzamide] | 1 to 300 nM
7. Cc1cc(=O)[nH]c2nccc(Nc3ccc(NC(=O)c4ccccc4)cc3)c12 [Compound 94] | 1 to 300 nM
